The measurements presented in this section are drawn from patent US10815222B2.

System: Bloodstream form of Trypanosoma brucei, strain Lister 427
Experiment: Trypanosoma brucei growth inhibition assay (CellTiter-Glo, 24 h)
Type: cell-based
Conditions: Trypanosoma brucei; T. Brucei Growth Inibition Assay, class symbols; read-out: T. Brucei GI EC50
pEC50: −log10 of the molar value.
Quantity name: pEC50

1. COc1ccc2[nH]c(C)c(CC(=O)N3CCCN(C)CC3c3ncc(-c4ccc5ccccc5c4)[nH]3)c2c1 (stereo not drawn)	5.30 to 6.00

Task item: Checklist item: pEC50 tested on Bloodstream form of Trypanosoma brucei, strain Lister 427, entry COc1ccc2nc(C(F)(F)F)n(CC(=O)N3CCN(Cc4ccon4)CCC3c3ncc(-c4cc5ccccc5nc4OC)[nH]3)c2c1 (stereo not drawn) , value?
Reply: > 7.00

Task item: Checklist item: pEC50 tested on Bloodstream form of Trypanosoma brucei, strain Lister 427, entry COc1ccc2nc(C(F)(F)F)n(CC(=O)N3CC[C@H](NCCn4cccn4)C[C@H]3c3ncc(-c4cc5ccccc5nc4OC)[nH]3)c2c1 , value?
Reply: > 7.00
